T/C values for the compounds below.
System: L1210 leukemia ip in BDF1 mice, survival T/C
Protocol text: NCI In Vivo Anticancer Drug Screen. Data for tumor model L1210 Leukemia (intraperitoneal) in B6D2F1 (BDF1) mice
Test settings: endpoint: mean survival time; dose: 200.0 mg/kg/injection; schedule: Q04DX003 (ip); vehicle: saline sonified; higher = longer survival
Inconclusive results and toxic doses are left out.

>>> recorded_measurement("Cc1cc(C)c(O)c(N=Nc2ccccc2)c1")
"93 % of control"
>>> recorded_measurement("CCCCCC(C1=NC(C)(C)CC(C)O1)c1ccccc1 (centres undefined)")
"117 % of control"
>>> recorded_measurement("CCCC(O)(CCC)CC(=O)OCC")
"106 % of control"

// moving on: another record for T/C
Per the record, CC1CC(C)(C)CC2(C1)OCC(CCl)O2 (centres undefined) has T/C of 98 % of control

---

T/C values for the molecules below.
Test system: L1210 leukemia ip in BDF1 mice, survival T/C
Protocol text: NCI In Vivo Anticancer Drug Screen. Data for tumor model L1210 Leukemia (intraperitoneal) in B6D2F1 (BDF1) mice
Test settings: endpoint: mean survival time; dose: 200.0 mg/kg/injection; schedule: Q01DX009 (ip); vehicle: Klucel (hydroxypropylcellulose) (HPC); higher = longer survival
Inconclusive results and toxic doses are left out.

Below, each entry is followed by its recorded T/C result.
>>> recorded_measurement("COc1ccc(S(=O)(=O)NC(=O)NC(=O)C=C(C)C)cc1")
"96 % of control"
>>> recorded_measurement("CC1(C)C=C(C(Br)c2ccc(Cl)cc2)C(=O)c2ccccc21 (configuration not stated)")
"100 % of control"
>>> recorded_measurement("O=C(Oc1ccccc1Cl)c1ccc(Cl)c(Cl)c1")
"93 % of control"
>>> recorded_measurement("Cc1cc2oc(/C=C(\\C#N)c3ccc([N+](=O)[O-])cc3)c(C)c2cc1C")
"103 % of control"
>>> recorded_measurement("CSc1ccc(NCN2C(=O)c3ccccc3C2=O)cc1")
"100 % of control"

Note to self: T/C of Nc1nc2n(n1)C(=O)C(=O)N2 with L1210 leukemia ip in BDF1 mice, survival T/C was 104 % of control

Note to self: T/C of Cc1ccc(NC(=O)c2cccc(C(=O)Nc3ccc(C)c(Cl)c3)c2)cc1Cl with L1210 leukemia ip in BDF1 mice, survival T/C was 97 % of control

Note to self: T/C of BrC1C2CC3C(C2)C13 (configuration not stated) with L1210 leukemia ip in BDF1 mice, survival T/C was 95 % of control

---

T/C values for the compounds below.
Test system: L1210 leukemia ip in BDF1 mice, survival T/C
Protocol text: NCI In Vivo Anticancer Drug Screen. Data for tumor model L1210 Leukemia (intraperitoneal) in B6D2F1 (BDF1) mice
Test settings: endpoint: mean survival time; dose: 25.0 mg/kg/injection; schedule: Q01DX009 (ip); vehicle: Klucel (hydroxypropylcellulose) (HPC); higher = longer survival
Toxic doses and inconclusive results are not listed.

Below, each entry is followed by its recorded T/C result.
>>> recorded_measurement("CC(C)CC(C=NCC(CCN(C)C)(CC(C)C)c1cccc2ccccc12)(CCN(C)C)c1cccc2ccccc12 (stereo unspecified)")
"88 % of control"
>>> recorded_measurement("O=C1CN=C(c2ccccc2)c2cc(Cl)ccc2N1")
"92 % of control"
>>> recorded_measurement("CSc1cc(C)[o+]c(C)c1")
"112 % of control"
>>> recorded_measurement("c1ccc([Se]c2ccccn2)nc1")
"98 % of control"
>>> recorded_measurement("O=C(Nc1ccc(Cl)cc1)c1cccc([N+](=O)[O-])c1O")
"95 % of control"
>>> recorded_measurement("CC/C(=N\\N=C(/CC)c1ccccc1)c1ccccc1")
"98 % of control"

Per the record, OCC1(CO)COC(c2ccccc2)OC1 has T/C of 101 % of control

Per the record, CC(C)=CCN(CC=C(C)C)CCC(CC=C(C)C)(C(N)=O)c1cccc2ccccc12 (stereo unspecified) has T/C of 89 % of control

Per the record, NCC(O)(c1ccccc1)c1ccccc1 has T/C of 95 % of control

Per the record, Cn1nc(CC(=O)O)c(C(N)=O)c1N has T/C of 101 % of control

Per the record, [Cl][Sb]([Cl])([c]1ccccc1)([c]1ccccc1)[c]1ccccc1 has T/C of 93 % of control

Source: PubChem BioAssay AID248
